- Tested on: LOC_OS01G48390-cb002
- assay-remarks: thermal shift delta Tm vs DMSO control; higher = stronger stabilization (binding);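 note: purified Escherichia coli-expressed rice kinase domain construct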
- condition-info: 12.5 µM; protein concentration 2 µM
Response key: 1 means thermal shift delta Tm >= 0.6 °C; -1 means thermal shift delta Tm < 0.6 °C.

I'd appreciate it if you could say whether "C=CC(=O)Nc1ccc(CN2C(=O)N(c3cc(OC)cc(OC)c3)Cc3cnc(Nc4ccc(N5CCN(C)CC5)cc4)nc32)cc1" has thermal shift delta Tm at least equal to 0.6 °C.
1

I'd appreciate it if you could say whether "CS(=O)(=O)c1cccc(CNc2nc(Nc3ccc4c(c3)CCC(=O)N4)ncc2C(F)(F)F)c1" has thermal shift delta Tm at least equal to 0.6 °C.
1

I'd appreciate it if you could say whether "COc1cc(N2CCC(N3CCN(C)CC3)CC2)ccc1Nc1ncnc(Nc2ccccc2S(=O)(=O)C(C)C)n1" has thermal shift delta Tm at least equal to 0.6 °C.
1

I'd appreciate it if you could say whether "Cc1csc(-c2nnc(Nc3ccc(Oc4ncccc4-c4ccnc(N)n4)cc3)c3ccccc23)c1" has thermal shift delta Tm at least equal to 0.6 °C.
1

I'd appreciate it if you could say whether "Nc1nc2cc(-c3ccc4ncc(C(=O)N5CCOCC5)n4c3)ccc2o1" has thermal shift delta Tm at least equal to 0.6 °C.
-1

I'd appreciate it if you could say whether "Cn1c(=O)c(F)c(Nc2ccc(I)cc2F)c2c(=O)n(C[C@@H](O)CO)cnc21" has thermal shift delta Tm at least equal to 0.6 °C.
-1

I'd appreciate it if you could say whether "CC(C)(C)c1cc(NC(=O)Nc2ccc(Oc3ccnc4[nH]c(=O)cnc34)cc2F)n(-c2ccccc2)n1" has thermal shift delta Tm at least equal to 0.6 °C.
-1

I'd appreciate it if you could say whether "O=C(O)CCC(=O)Nc1ccc(Br)cn1" has thermal shift delta Tm at least equal to 0.6 °C.
-1

====

- System: LOC_OS07G06570-cb004
- assay-remarks: thermal shift delta Tm vs DMSO control; higher = stronger stabilization (binding)
- condition-info: 12.5 µM; protein concentration 2 µM
Give measured thermal shift delta Tm for each item. Keep answers brief.
Quick note: give the figure in °C, leave out the unit.

Fill in thermal shift delta Tm for record "CC(C)c1cnn2c(NCc3ccccc3)cc(NCCCCCCN)nc12"
1.35

Fill in thermal shift delta Tm for record "Cn1cnc2c(F)c(Nc3ccc(Br)cc3Cl)c(C(=O)NOCCO)cc21"
0.8

Fill in thermal shift delta Tm for record "CCOC(=O)c1cnc2ccc(-c3cncc(NS(=O)(=O)c4ccccc4)c3)cn12"
0.45

Fill in thermal shift delta Tm for record "O=C1NCCc2[nH]c(-c3ccncc3)cc21"
0.4

Fill in thermal shift delta Tm for record "COc1cc2nccc(Oc3ccc(NC(=O)C4(C(=O)Nc5ccc(F)cc5)CC4)cc3)c2cc1OC"
0.82

Fill in thermal shift delta Tm for record "O=C(O)c1ccc2c3c1cccc3c(=O)n1c3ccccc3nc21"
0.54

Fill in thermal shift delta Tm for record "Cc1cc(F)c(Nc2ncnc3cc(OCc4ccccc4)ccc23)cc1O"
2.49

Fill in thermal shift delta Tm for record "COc1cc2ncnc(Nc3ccc(O)c(Br)c3)c2cc1OC"
1.76

Fill in thermal shift delta Tm for record "NCC(=O)Nc1ccc(-n2nc(C(F)(F)F)cc2-c2ccc3c(ccc4ccccc43)c2)cc1"
0.5

Fill in thermal shift delta Tm for record "CONC(=O)c1ccccc1Nc1cc(Nc2cc(C)nn2C(C)C)ncc1Cl"
1.77

====

- Tested on: LOC_OS02G54510-cb004
- assay-remarks: thermal shift delta Tm vs DMSO control; higher = stronger stabilization (binding)
- condition-info: 12.5 µM; protein concentration 2 µM
Where a name gives a salt, the structure may show the parent alone.
reported-property: thermal shift delta Tm (°C)
Quick note: give the figure in °C, leave out the unit.

Fill in thermal shift delta Tm for record Nc1cc(C(F)(F)F)c(-c2cc(N3CCOCC3)nc(N3CCOCC3)n2)cn1 [Buparlisib (BKM120, NVP-BKM120)]
-0.07

Fill in thermal shift delta Tm for record COc1nccnc1NS(=O)(=O)c1ccc(NC(=O)/C=C/c2ccc([N+](=O)[O-])s2)cc1 [Necrosulfonamide]
0.22

Fill in thermal shift delta Tm for record CCCCNc1ncc(C(=O)NCc2ccc(-n3ccnc3)cc2)c(NC2CCC(O)CC2)n1 (stereo not drawn)
0.46

Fill in thermal shift delta Tm for record "CN1CCC(COc2cnc(-c3cccc(Cn4nc(-c5cccc(C#N)c5)ccc4=O)c3)nc2)CC1"
-0.06

Fill in thermal shift delta Tm for record "CN1CCCN(C(=O)c2cccc(-c3ccc(/C=C4/C(=O)Nc5ccc(Cl)cc54)o3)c2)CC1"
0.59

Fill in thermal shift delta Tm for record "COc1cc2ncnc(Nc3cccc(Cl)c3F)c2cc1OC(=O)N1CCN(C)C[C@H]1C"
0.53

Fill in thermal shift delta Tm for record Cc1cc(C(C)Nc2ccccc2)c2nc(N3CCOCC3)cc(=O)n2c1 (stereo not drawn)
0.09

Fill in thermal shift delta Tm for record CN1CC[C@H](c2c(O)cc(O)c3c(=O)cc(-c4ccccc4Cl)oc23)[C@H](O)C1 [Flavopiridol HCl]
0.99

Fill in thermal shift delta Tm for record "Cn1sc(=O)n(Cc2ccccc2)c1=O"
-2

Fill in thermal shift delta Tm for record "N#CC(=C(/N)Sc1ccccc1N)/C(C#N)=C(\N)Sc1ccccc1N"
-0.59

Fill in thermal shift delta Tm for record COc1cc2c(c(OC)c1OC)-c1c(cc3c(c1OC)OCO3)CC(C)C(C)C2 (stereo not drawn) [Schisandrin B (Sch B)]
-0.01

Fill in thermal shift delta Tm for record "CCN1/C(=C/C(C)=O)Sc2ccc(OC)cc21"
0.02

Fill in thermal shift delta Tm for record "CCN(C)S(=O)(=O)Nc1ccc(F)c(C(=O)c2c[nH]c3ncc(-c4cnc(C5CC5)nc4)cc23)c1F"
0.87

Fill in thermal shift delta Tm for record "CC(C)(O)CC(=O)NCCn1ccc2ncnc(Nc3ccc(Oc4cccc(C(F)(F)F)c4)c(Cl)c3)c21"
-0.25

Fill in thermal shift delta Tm for record CCCCCCCCCC(=O)CC(O)S(=O)(=O)O (stereo not drawn) [Sodium Houttuyfonate]
0.52

Fill in thermal shift delta Tm for record COc1ccc(Cl)c(Nc2nc3ccccc3nc2NS(=O)(=O)c2cccc(NC(=O)C(C)(C)N)c2)c1 [Pilaralisib (XL147)]
-0.18

Fill in thermal shift delta Tm for record "CCn1c2ccccc2c2cc(Nc3ccnc(NCCCN4CCOCC4)n3)ccc21"
0.13

Fill in thermal shift delta Tm for record O=C(c1ccc(F)c(F)c1Nc1ccc(I)cc1F)N1CC(O)([C@@H]2CCCCN2)C1 [Cobimetinib (GDC-0973, RG7420)]
0.05

====

- Test system: LOC_OS02G14120-cb001
- assay-remarks: thermal shift delta Tm vs DMSO control; higher = stronger stabilization (binding)
- condition-info: 12.5 µM; protein concentration 2 µM
Give measured thermal shift delta Tm for each item. Keep answers brief.
Kindly format the answer as number then unit.

Fill in thermal shift delta Tm for record N#Cc1ccc2ncnc(NCCc3ccccc3)c2c1 [Senexin A]
2.47 °C

Fill in thermal shift delta Tm for record "Cn1c(=O)c(Oc2ccc(F)cc2F)cc2cnc(NC(CCO)CCO)nc21"
1.36 °C

Fill in thermal shift delta Tm for record "C=CC(=O)N1CCC[C@@H](n2nc(-c3ccc(Oc4ccccc4)cc3)c3c(N)ncnc32)C1"
0.34 °C

Fill in thermal shift delta Tm for record "CCn1cc(-c2ccnc3[nH]c(-c4cccc(CN(C)C)c4)cc23)c(-c2ccc(NC(=O)N(C)C)cc2)n1"
6.39 °C

Fill in thermal shift delta Tm for record CC(C)c1ccc2oc3nc(N)c(C(=O)O)cc3c(=O)c2c1 [Amlexanox]
0.32 °C

====

Give measured thermal shift delta Tm for each item. Keep answers brief.
- Test system: LOC_OS01G67340-cb003
- assay-remarks: thermal shift delta Tm vs DMSO control; higher = stronger stabilization (binding)
- condition-info: 12.5 µM; protein concentration 2 µM
Kindly format the answer as number then unit.

Fill in thermal shift delta Tm for record CN1CCN(c2ccc3nc(-c4c(N)c5c(F)cccc5[nH]c4=O)[nH]c3c2)CC1 [Dovitinib (TKI-258, CHIR-258)]
2.72 °C

Fill in thermal shift delta Tm for record "CNC(=O)Nc1ccc(-c2nc(N3CC4CCC(C3)O4)c3cnn(C4CCC5(CC4)OCCO5)c3n2)cc1"
0.98 °C

Fill in thermal shift delta Tm for record "CCn1nc(C2CCN(C(=O)CCO)CC2)nc1-c1cnc(N)c(-c2nnc(C(C)(C)C)o2)n1"
1.55 °C

Fill in thermal shift delta Tm for record "C=CC(=O)Nc1cccc(C)c1Nc1ncc2cc(-c3c(Cl)c(OC)cc(OC)c3Cl)ccc2n1"
0.6 °C

Fill in thermal shift delta Tm for record "CC#CC(=O)N1CCC[C@H]1c1nc(-c2ccc(C(=O)Nc3ccccn3)cc2)c2c(N)nccn12"
0.39 °C

Fill in thermal shift delta Tm for record "C[C@H](NC(=O)/C(C#N)=C/c1cccc(Br)n1)c1ccccc1"
-1.18 °C

Fill in thermal shift delta Tm for record "Cc1cn(-c2cc(NC(=O)c3ccc(C)c(Nc4nccc(-c5cnccn5)n4)c3)cc(C(F)(F)F)c2)cn1"
0.48 °C

Fill in thermal shift delta Tm for record "CN(C)S(=O)(=O)c1ccc2c(c1)/C(=C/c1cc3c([nH]1)CCCC3)C(=O)N2"
11.3 °C

Fill in thermal shift delta Tm for record "CCn1c2ccccc2c2cc(Nc3ccnc(NCCCN4CCOCC4)n3)ccc21"
0.51 °C

Fill in thermal shift delta Tm for record "CCN(CC)CCNC(=O)c1c(C)[nH]c(/C=C2\C(=O)Nc3ccc(-c4csc(-c5ccccc5)n4)cc32)c1C"
0.03 °C

Fill in thermal shift delta Tm for record "Cc1nc2c(-c3cnc(N)nc3)nc(N3CCOCC3)nc2n1C(C)C"
0.22 °C

Fill in thermal shift delta Tm for record "C=CC(=O)N[C@H]1CCOC[C@H]1Nc1ncc2cc(-c3c(Cl)c(OC)cc(OC)c3Cl)ccc2n1"
-0.17 °C

Fill in thermal shift delta Tm for record "O=C(Nc1cccc(C(F)(F)F)c1)c1cccc2cc(Oc3cc(CO)ncn3)ccc12"
0.38 °C

Fill in thermal shift delta Tm for record "Cc1c[nH]c(/C=C2\C(=O)Nc3ccccc32)c1CCC(=O)O"
3.1 °C

Fill in thermal shift delta Tm for record CC(C)NC(=O)C1CCC(n2c(NC(=O)c3ccc(F)cc3)nc3ccc(CN4CCC(C(C)(C)O)CC4)cc32)CC1 (configuration not stated)
2.85 °C

Fill in thermal shift delta Tm for record "Cc1nc(-c2cn3c(n2)-c2ccc(-c4cnn(C(C)(C)C(N)=O)c4)cc2OCC3)n(C(C)C)n1"
0.07 °C

Fill in thermal shift delta Tm for record "Cc1nc(NC(=O)N2CCC[C@H]2C(N)=O)sc1-c1ccnc(C(C)(C)C(F)(F)F)c1"
0.12 °C
